Protein target, amino acids: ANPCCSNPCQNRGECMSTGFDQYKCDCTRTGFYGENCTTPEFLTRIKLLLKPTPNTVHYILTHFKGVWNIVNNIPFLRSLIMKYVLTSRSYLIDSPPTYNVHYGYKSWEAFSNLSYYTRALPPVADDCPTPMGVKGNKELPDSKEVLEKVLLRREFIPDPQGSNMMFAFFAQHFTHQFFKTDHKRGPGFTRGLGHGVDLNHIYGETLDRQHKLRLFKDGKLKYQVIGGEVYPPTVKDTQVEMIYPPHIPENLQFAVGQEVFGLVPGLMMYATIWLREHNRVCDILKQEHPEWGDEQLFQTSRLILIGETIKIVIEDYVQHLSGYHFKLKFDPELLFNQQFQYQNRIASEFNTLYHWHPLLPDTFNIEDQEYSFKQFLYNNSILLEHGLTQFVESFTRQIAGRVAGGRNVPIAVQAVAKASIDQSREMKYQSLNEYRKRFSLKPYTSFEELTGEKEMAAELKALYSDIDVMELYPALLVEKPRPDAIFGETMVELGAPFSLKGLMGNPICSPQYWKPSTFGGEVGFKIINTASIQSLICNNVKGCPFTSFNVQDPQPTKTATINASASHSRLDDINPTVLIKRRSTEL
EXPERIMENTAL_ENDPOINT: IC50 (nM)
Answers are plain numbers, in nM.

Query: Looking for the measured IC50 of COc1ccc2c(c1)c1c(n2C(=O)c2ccc(Cl)cc2)CC(C(=O)O)CC1 (stereo not shown) , can you help?
Result: 1480
